Where do these numbers come from? They come from ChEMBL document CHEMBL1177638.

Exercise: state measured pIC50 for each of the compounds provided.
- System: Jurkat
- assay overview: Phototoxicity against human Jurkat cells irradiated with 2.5 J/cm'2 after 72 hrs by MTT assay
- Type: functional, cell-based
- condition info: light or radiation study
Give bare numbers, as −log10 of the molar value.

Worked set:
>  <smiles data>
CCOC(=O)c1cc2c([nH]1)-c1[nH]c(=O)c(S(=O)(=O)c3ccccc3)cc1CC2

>  <pIC50>
5.46

$$$$
>  <smiles data>
O=c1[nH]c2c(cc1S(=O)(=O)c1ccccc1)CCc1ccn(Cc3ccccc3)c1-2

>  <pIC50>
5.89

$$$$
>  <smiles data>
CCOC(=O)c1cc2c(n1Cc1ccc(C)cc1)-c1[nH]c(=O)c(S(=O)(=O)c3ccccc3)cc1CC2

>  <pIC50>
5.82

$$$$

Alright, here's another compound for you.
Problem: Recorded pIC50 of Cc1ccc(Cn2ccc3c2-c2[nH]c(=O)c(S(=O)(=O)c4ccccc4)cc2CC3)cc1 , please.
Solution: 5.80
